# Measured target: Recombinant human HDAC6 (Homo sapiens, UniProt Q9UBN7)
# Construct: purchased BPS Biosciences
# Sequence (Q9UBN7 1-1215): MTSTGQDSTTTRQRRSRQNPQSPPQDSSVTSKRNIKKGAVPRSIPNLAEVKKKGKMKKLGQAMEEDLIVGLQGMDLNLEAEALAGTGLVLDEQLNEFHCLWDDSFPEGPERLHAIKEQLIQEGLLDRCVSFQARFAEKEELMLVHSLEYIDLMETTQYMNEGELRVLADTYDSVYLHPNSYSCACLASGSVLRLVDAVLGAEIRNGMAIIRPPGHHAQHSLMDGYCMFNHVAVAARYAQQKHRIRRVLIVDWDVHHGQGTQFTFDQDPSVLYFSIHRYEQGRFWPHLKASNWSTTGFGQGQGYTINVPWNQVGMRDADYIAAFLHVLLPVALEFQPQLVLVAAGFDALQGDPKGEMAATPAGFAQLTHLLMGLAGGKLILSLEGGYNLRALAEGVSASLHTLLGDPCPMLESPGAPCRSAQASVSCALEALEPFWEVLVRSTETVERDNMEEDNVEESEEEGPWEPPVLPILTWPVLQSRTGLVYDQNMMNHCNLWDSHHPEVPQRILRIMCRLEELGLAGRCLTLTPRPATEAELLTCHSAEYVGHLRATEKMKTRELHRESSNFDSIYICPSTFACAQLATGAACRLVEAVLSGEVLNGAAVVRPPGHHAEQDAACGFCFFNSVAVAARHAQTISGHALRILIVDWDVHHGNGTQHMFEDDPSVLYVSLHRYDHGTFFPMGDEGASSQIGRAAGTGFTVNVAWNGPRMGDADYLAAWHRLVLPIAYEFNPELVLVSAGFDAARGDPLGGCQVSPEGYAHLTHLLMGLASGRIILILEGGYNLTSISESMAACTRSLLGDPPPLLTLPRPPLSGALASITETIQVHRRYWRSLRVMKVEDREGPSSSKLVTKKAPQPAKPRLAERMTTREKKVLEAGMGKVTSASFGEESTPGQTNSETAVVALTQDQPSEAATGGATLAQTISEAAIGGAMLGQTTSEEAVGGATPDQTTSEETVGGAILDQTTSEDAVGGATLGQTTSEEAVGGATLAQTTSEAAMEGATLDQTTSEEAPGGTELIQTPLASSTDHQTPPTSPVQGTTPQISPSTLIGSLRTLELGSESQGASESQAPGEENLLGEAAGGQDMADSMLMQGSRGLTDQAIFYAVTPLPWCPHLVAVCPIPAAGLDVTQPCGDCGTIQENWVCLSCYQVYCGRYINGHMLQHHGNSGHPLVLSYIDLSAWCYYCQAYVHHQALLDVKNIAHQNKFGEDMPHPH
# Assay protocol: HDAC inhibitory assay, HDAC6 (Boc-Lys(Ac)-AMC substrate)
# Assay type: biochemical
# Assay setup: test concentration not given; average of triplicate
Measured property: HDAC 6 inhibitory activity (%)
Give bare numbers, in %.

// worked examples, HDAC 6 inhibitory activity included
Query: Lab note: need HDAC 6 inhibitory activity for O=C(CNC(=O)c1coc(-c2ccccc2O)n1)Nc1ccccc1 on Recombinant human HDAC6 (Homo sapiens, UniProt Q9UBN7), anyone have it?
Reply: 59.9

Query: Cool, now O=C(NC(c1ccccc1)c1ccccc1)c1coc(-c2ccccc2O)n1
Reply: 61.6

Query: Now try O=C(O)c1ccc(CNC(=O)c2coc(-c3ccccc3O)n2)cc1 .
Reply: 60.3

Query: // same read-out, input: O=C(NCCCCNC(=S)NCCC(c1ccccc1)c1ccccc1)c1coc(-c2ccccc2O)n1
Reply: 50.2

Query: Also O=C(Nc1ccc(-c2ccccc2)cc1)c1coc(-c2ccccc2O)n1 ?
Reply: 45.6

Now for the molecule whose HDAC 6 inhibitory activity we want.
Query: Find the measured HDAC 6 inhibitory activity: item O=C(NCc1cccc2ccccc12)c1coc(-c2ccccc2O)n1 , target or system Recombinant human HDAC6 (Homo sapiens, UniProt Q9UBN7).
Reply: 40.4
